The measurements presented in this section are drawn from patent US7033991.

# System under test: T1, PC2, P16519
# T1 chain: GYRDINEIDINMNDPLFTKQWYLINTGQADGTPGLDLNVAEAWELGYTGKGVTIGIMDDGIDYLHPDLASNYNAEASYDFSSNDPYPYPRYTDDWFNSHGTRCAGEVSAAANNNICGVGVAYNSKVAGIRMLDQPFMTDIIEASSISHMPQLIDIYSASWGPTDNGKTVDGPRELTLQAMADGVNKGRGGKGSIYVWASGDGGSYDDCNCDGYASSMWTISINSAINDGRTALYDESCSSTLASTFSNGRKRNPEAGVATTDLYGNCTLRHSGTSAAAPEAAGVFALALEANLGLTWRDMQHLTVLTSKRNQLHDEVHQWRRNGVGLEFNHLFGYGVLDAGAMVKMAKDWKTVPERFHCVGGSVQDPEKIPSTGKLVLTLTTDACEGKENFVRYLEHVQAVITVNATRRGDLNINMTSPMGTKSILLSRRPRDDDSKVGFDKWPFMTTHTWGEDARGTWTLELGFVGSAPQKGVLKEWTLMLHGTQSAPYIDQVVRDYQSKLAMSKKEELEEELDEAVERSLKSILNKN
# Applied conditions: modification not given
pKi: −log10 of the molar value.

Binder | pKi
Ac-KHKRRR-NH2 [Ac-KHKRRR-NH2] | 3.55
